Cited source for all entries: patent US20250122160A1

# maps each entry to its pIC50
studySystem: His tagged full-length PTPN1 protein (Homo sapiens)
Sequence (P18031 with tags, fused parts or gaps): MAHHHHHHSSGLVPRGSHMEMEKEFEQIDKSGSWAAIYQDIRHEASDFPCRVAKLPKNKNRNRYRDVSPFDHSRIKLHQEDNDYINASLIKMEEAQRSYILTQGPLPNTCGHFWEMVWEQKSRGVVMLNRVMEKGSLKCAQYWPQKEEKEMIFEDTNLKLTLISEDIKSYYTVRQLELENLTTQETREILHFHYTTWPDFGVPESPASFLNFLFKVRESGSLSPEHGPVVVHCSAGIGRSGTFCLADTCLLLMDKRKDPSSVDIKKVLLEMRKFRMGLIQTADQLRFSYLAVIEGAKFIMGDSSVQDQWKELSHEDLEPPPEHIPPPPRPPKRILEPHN
pIC50: −log10 of the molar value.

smilesstring=CC(C)(C)OC(=O)N[C@@H]1CCc2cc(O)c(N3CC(=O)NS3(=O)=O)c(F)c2C1 assayvalue="7.00 to 8.00"
smilesstring=CC(C)CCN[C@@H]1CCc2cc(O)c(N3CC(=O)NS3(=O)=O)c(F)c2[C@H]1O assayvalue="< 7.00"

Field request: pIC50 | item: `O=C1CN(c2c(O)cc3c(c2F)CN(CCCc2ccccc2F)CC3)S(=O)(=O)N1`
7.00 to 8.00

Field request: pIC50 | item: `O=C1CN(c2c(O)cc3c(c2F)C[C@H](NCCC2CCOCC2)CO3)S(=O)(=O)N1`
7.00 to 8.00

* * *

studySystem: His tagged PTPN2 (TC45) protein (Homo sapiens, UniProt P17706)
Construct: made in house
Sequence (P17706 with tags, fused parts or gaps isoform P17706-2): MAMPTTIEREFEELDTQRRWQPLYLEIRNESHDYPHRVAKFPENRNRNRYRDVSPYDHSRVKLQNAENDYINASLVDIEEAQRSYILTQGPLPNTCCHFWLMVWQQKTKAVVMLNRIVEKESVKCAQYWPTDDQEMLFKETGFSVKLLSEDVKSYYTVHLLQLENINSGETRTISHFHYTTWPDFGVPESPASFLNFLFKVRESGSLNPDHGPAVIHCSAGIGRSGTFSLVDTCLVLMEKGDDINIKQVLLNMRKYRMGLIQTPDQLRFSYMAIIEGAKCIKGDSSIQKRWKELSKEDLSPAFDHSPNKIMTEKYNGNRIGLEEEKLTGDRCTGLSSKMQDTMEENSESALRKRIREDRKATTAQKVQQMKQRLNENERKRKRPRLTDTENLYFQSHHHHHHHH
experiment: Mobility shift assay (MSA) to determine potency of PTPN2 inhibitors
Format: biochemical
assaySetup: 0.5 nM enzyme, 2 μM substrate
endpointName: IC50

Worked examples, 5 molecules total:
molecule="O=C1CN(c2c(O)cc3c(c2F)CN(CCCCC(F)(F)F)CC3)S(=O)(=O)N1 [Compound 153]" endpointname=IC50 assayvalue="10 to 100 nM"
molecule="O=C1CN(c2c(O)cc3c(c2F)C[C@H](NCCC2CCCC2)CC3)S(=O)(=O)N1 [Compound 200]" endpointname=IC50 assayvalue="< 1 nM"
molecule="N[C@@H]1COc2cc(O)c(N3CC(=O)NS3(=O)=O)c(F)c2C1 [Compound 326]" endpointname=IC50 assayvalue="10 to 100 nM"
molecule="NCC1CCc2cc(O)c(N3CC(=O)NS3(=O)=O)c(F)c2C1 (centres unmarked) [Compound 389]" endpointname=IC50 assayvalue="10 to 100 nM"
molecule="Cn1cncc1CN[C@@H]1CCc2cc(O)c(N3CC(=O)NS3(=O)=O)c(F)c2C1 [Compound 357]" endpointname=IC50 assayvalue="10 to 100 nM"

Field request: IC50 | item: O=C1CN(c2c(O)cc3c(c2F)C[C@H](NCCC2(CO)CCC2)CC3)S(=O)(=O)N1 [Compound 338]
< 1 nM

Field request: IC50 | item: CC(C)CNC(=O)N1CCc2cc(O)c(N3CC(=O)NS3(=O)=O)c(F)c2C1 [Compound 206]
10 to 100 nM

Field request: IC50 | item: O=C1CN(c2c(O)cc3c(c2F)CCCO3)S(=O)(=O)N1 [Compound 111]
10 to 100 nM

* * *

# maps each entry to its pIC50
studySystem: His tagged PTPN2 (TC45) protein (Homo sapiens, UniProt P17706)
Construct: made in house
experiment: Mobility shift assay (MSA) to determine potency of PTPN2 inhibitors
Type: biochemical
assaySetup: 0.5 nM enzyme, 2 μM substrate
pIC50: −log10 of the molar value.

Worked examples, 3 compounds total:
compound=O=C1CN(c2c(O)cc3c(c2F)CCCC3)S(=O)(=O)N1 endpointname=pIC50 assayvalue="7.00 to 8.00"
compound=O=C1CN(c2c(O)cc3c(c2F)C[C@H](NCC2(CF)CC2)CO3)S(=O)(=O)N1 endpointname=pIC50 assayvalue="7.00 to 8.00"
compound=CC1(CCNC(=O)N2CCc3cc(O)c(N4CC(=O)NS4(=O)=O)c(F)c3C2)CC1 endpointname=pIC50 assayvalue="7.00 to 8.00"

Field request: pIC50 | item: `CC(C)NCCN1CCc2cc(O)c(N3CC(=O)NS3(=O)=O)c(F)c2C1`
7.00 to 8.00

Field request: pIC50 | item: `CC(C)CCC(=O)N1CCc2cc(O)c(N3CC(=O)NS3(=O)=O)c(F)c2C1`
8.00 to 9.00

Field request: pIC50 | item: `CC(C)(C)OC(=O)N[C@H]1CC[C@H](CCN2CCc3cc(O)c(N4CC(=O)NS4(=O)=O)c(F)c3C2)CC1`
8.00 to 9.00

Field request: pIC50 | item: `CCn1nc(C)c(CCN2CCc3cc(O)c(N4CC(=O)NS4(=O)=O)c(F)c3C2)c1C`
> 9.00

Field request: pIC50 | item: `CC(C)(C)CNC(=O)N1CCc2cc(O)c(N3CC(=O)NS3(=O)=O)c(F)c2C1`
8.00 to 9.00

Field request: pIC50 | item: `COCCCNC(=O)N1CCc2cc(O)c(N3CC(=O)NS3(=O)=O)c(F)c2C1`
7.00 to 8.00

Field request: pIC50 | item: `O=C1CN(c2c(O)cc3c(c2F)CN(C(=O)NCC2CCCCC2)CC3)S(=O)(=O)N1`
8.00 to 9.00

Field request: pIC50 | item: `NCC1(CCN[C@@H]2CCc3cc(O)c(N4CC(=O)NS4(=O)=O)c(F)c3C2)CCC1`
> 9.00

Field request: pIC50 | item: `Cc1nn(C)c(C)c1CCN1CCc2cc(O)c(N3CC(=O)NS3(=O)=O)c(F)c2C1`
8.00 to 9.00

Field request: pIC50 | item: `C[C@@H]1C[C@@H](NC(=O)OC(C)(C)C)Cc2c1cc(O)c(N1CC(=O)NS1(=O)=O)c2F`
< 7.00

Field request: pIC50 | item: `CC1(CN[C@@H]2CCc3cc(O)c(N4CC(=O)NS4(=O)=O)c(F)c3C2)COC1`
8.00 to 9.00

Field request: pIC50 | item: O=C1CN(c2c(O)cc3c(c2F)CC(O)CC3)S(=O)(=O)N1 (stereo not shown)
7.00 to 8.00

Field request: pIC50 | item: `O=C1CN(c2c(O)cc3c(c2F)C[C@H](NCc2ccnnc2)CC3)S(=O)(=O)N1`
7.00 to 8.00

* * *

List of IC50 tested on UniProtKB P17706.

Worked examples, 6 compounds total:
compound=Cc1c(CNC(=O)N2CCc3cc(O)c(N4CC(=O)NS4(=O)=O)c(F)c3C2)cnn1C studysystem="UniProtKB P17706" assayvalue="10 to 100 nM"
compound="CC(C)(C)OC(=O)NCC1CCc2cc(O)c(N3CC(=O)NS3(=O)=O)c(F)c2C1 (stereo not shown)" studysystem="UniProtKB P17706" assayvalue="10 to 100 nM"
compound="[2H]C1([2H])Cc2cc(O)c(N3CC(=O)NS3(=O)=O)c(F)c2C([2H])([2H])C1([2H])NCCC(C)C (stereo not shown)" studysystem="UniProtKB P17706" assayvalue="< 1 nM"
compound="NC[C@@H]1Cc2cc(O)c(N3CC(=O)NS3(=O)=O)c(F)c2C1 (single isomer, unassigned)" studysystem="UniProtKB P17706" assayvalue="1 to 10 nM"
compound="CC1C[C@@H](NC(=O)OC(C)(C)C)Cc2c1cc(O)c(N1CC(=O)NS1(=O)=O)c2F (mixture of isomers)" studysystem="UniProtKB P17706" assayvalue="10 to 100 nM"
compound=O=C1CN(c2c(O)cc3c(c2F)CN(CCC2CCCCC2)CC3)S(=O)(=O)N1 studysystem="UniProtKB P17706" assayvalue="10 to 100 nM"

Field request: IC50 | item: `Cc1nn(C)c(C)c1CN1CC2(CC(N3CCc4cc(O)c(N5CC(=O)NS5(=O)=O)c(F)c4C3)C2)C1`
> 100 nM

* * *

studySystem: His tagged PTPN2 (TC45) protein (Homo sapiens, UniProt P17706)
# maps each entry to its IC50

Worked examples, 3 molecules total:
smilesstring=Cc1nn(C(C)(C)C)c(C)c1CCN1CCc2cc(O)c(N3CC(=O)NS3(=O)=O)c(F)c2C1 assayvalue="1 to 10 nM"
smilesstring=CC(C)CCC[C@H]1Cc2c(cc(O)c(N3CC(=O)NS3(=O)=O)c2F)CN1 assayvalue="1 to 10 nM"
smilesstring=O=C1CN(c2c(O)cc3c(c2F)CN(CCC2(C(F)(F)F)CC2)CC3)S(=O)(=O)N1 assayvalue="1 to 10 nM"

Field request: IC50 | item: `O=C1CN(c2c(O)cc3c(c2F)CN(C(=O)NCC2COC2)CC3)S(=O)(=O)N1`
10 to 100 nM

Field request: IC50 | item: `CC1(C)COC(CCCCN2CCc3cc(O)c(N4CC(=O)NS4(=O)=O)c(F)c3C2)OC1`
10 to 100 nM

Field request: IC50 | item: `C[C@@H](N)CN1CCc2cc(O)c(N3CC(=O)NS3(=O)=O)c(F)c2C1`
10 to 100 nM

Field request: IC50 | item: `O=C1CN(c2c(O)cc3c(c2F)CN(C2CC4(CNC4)C2)CC3)S(=O)(=O)N1`
10 to 100 nM

Field request: IC50 | item: `O=C1CN(c2c(O)cc3c(c2F)CN(C2CNC2)CC3)S(=O)(=O)N1`
10 to 100 nM
